Recorded pD2, one value per entry.
# Target Or System: Muscarinic acetylcholine receptor M1 (Rattus norvegicus)
Format: numeric value only, no unit, no commentary.

Field: example entries. Status: answers known.
- Compound: "C[C@H]1OC[C@@H](C[N+](C)(C)C)O1"
  Quantitative Readout: 7.8
- Compound: "CC1OCC2(CC[N+](C)(C)CC2)O1 (configuration not stated)"
  Quantitative Readout: 6.1

stdin: Query for Muscarinic acetylcholine receptor M1 (Rattus norvegicus): what pD2 does the record show for CC1OCC2(CCN(C)CC2)S1 (configuration not stated) ?
stdout: 5.6

stdin: Query for Muscarinic acetylcholine receptor M1 (Rattus norvegicus): what pD2 does the record show for COC1OCC2(CCN(C)CC2)O1 (configuration not stated) ?
stdout: 5.5

stdin: Query for Muscarinic acetylcholine receptor M1 (Rattus norvegicus): what pD2 does the record show for C#CC1OCC2(CCN(C)CC2)O1 (configuration not stated) ?
stdout: 5.9

stdin: Query for Muscarinic acetylcholine receptor M1 (Rattus norvegicus): what pD2 does the record show for CCC1OCC2(CCN(C)CC2)O1 (configuration not stated) ?
stdout: 5.5

stdin: Query for Muscarinic acetylcholine receptor M1 (Rattus norvegicus): what pD2 does the record show for CC1SCC2(CCN(C)CC2)S1 (configuration not stated) ?
stdout: 5

Reference source for all entries: ChEMBL document CHEMBL1126214
